The measurements presented in this section are drawn from paper PMC11220790.

TEST NAME: Solid-state stability under accelerated degradation conditions (40 °C, 75% RH)
CONDITION SUMMARY: solid, after 90 days at 40 °C and 75% RH
Measured stability, % DTIC found values are reported for all entries that follow.

[
  {
    "MOLECULE": "CN(C)N=Nc1[nH]cnc1C(N)=O.O=C(O)C=CC(=O)O [DTIC-HMAL, Dacarbazine Hydrogen-Maleate Salt]",
    "SCALE UNIT": "%",
    "stability, % DTIC found": 98.2
  },
  {
    "MOLECULE": "CN(C)N=Nc1nc[nH]c1C(N)=O.CN(C)N=Nc1nc[nH]c1C(N)=O.O.O.O.O.O=C(O)CC(O)(CC(=O)O)C(=O)O [DTIC-HCIT]",
    "SCALE UNIT": "%",
    "stability, % DTIC found": 96.0
  },
  {
    "MOLECULE": "CN(C)N=Nc1[nH]cnc1C(N)=O.O=C(O)C(=O)O [DTIC-HOXA, Dacarbazine Hydrogen-Oxalate Salt]",
    "SCALE UNIT": "%",
    "stability, % DTIC found": 99.9
  },
  {
    "MOLECULE": "CN(C)/N=N/c1[nH]cnc1C(N)=O [DTIC, Dacarbazine, reference compound]",
    "SCALE UNIT": "%",
    "stability, % DTIC found": 99.8
  },
  {
    "MOLECULE": "CN(C)N=Nc1nc[nH]c1C(N)=O.O=C(O)/C=C/C(=O)O [DTIC-H2FUM, Dacarbazine-Fumaric Acid Cocrystal]",
    "SCALE UNIT": "%",
    "stability, % DTIC found": 99.2
  }
]

###

TEST NAME: Solid-state photodegradation test (black UV lamp chamber)
CONDITION SUMMARY: after 15 days in photostability chamber
Measured stability, % DTIC found values are reported for all entries that follow.

[
  {
    "COMPOUND": "CN(C)N=Nc1nc[nH]c1C(N)=O.O=C(O)/C=C/C(=O)O",
    "stability, % DTIC found, %": 97.3
  },
  {
    "COMPOUND": "CN(C)/N=N/c1[nH]cnc1C(N)=O [DTIC, Dacarbazine, reference compound]",
    "stability, % DTIC found, %": 94.4
  },
  {
    "COMPOUND": "CN(C)N=Nc1[nH]cnc1C(N)=O.O=C(O)C(=O)O [DTIC-HOXA, Dacarbazine Hydrogen-Oxalate Salt]",
    "stability, % DTIC found, %": 97.1
  },
  {
    "COMPOUND": "CN(C)N=Nc1[nH]cnc1C(N)=O.O=C(O)C=CC(=O)O [DTIC-HMAL, Dacarbazine Hydrogen-Maleate Salt]",
    "stability, % DTIC found, %": 98.4
  },
  {
    "COMPOUND": "CN(C)N=Nc1nc[nH]c1C(N)=O.CN(C)N=Nc1nc[nH]c1C(N)=O.O.O.O.O.O=C(O)CC(O)(CC(=O)O)C(=O)O",
    "stability, % DTIC found, %": 97.0
  }
]

###

Measured IDR (intrinsic dissolution rate) pH 6.8 values are reported for all entries that follow.
TEST NAME: Intrinsic dissolution, rotating disk apparatus
Assay type: physicochemical
CONDITION SUMMARY: phosphate buffer pH 6.8, 37.0 ± 0.5 °C, 100 rpm

[
  {
    "COMPOUND": "CN(C)/N=N/c1[nH]cnc1C(N)=O [DTIC, Dacarbazine, reference compound]",
    "IDR (intrinsic dissolution rate) pH 6.8": "0.26 ± 0.02 mg cm^–2 min^–1"
  },
  {
    "COMPOUND": "CN(C)N=Nc1nc[nH]c1C(N)=O.O=C(O)/C=C/C(=O)O",
    "IDR (intrinsic dissolution rate) pH 6.8": "1.31 ± 0.05 mg cm^–2 min^–1"
  },
  {
    "COMPOUND": "CN(C)N=Nc1[nH]cnc1C(N)=O.O=C(O)C(=O)O [DTIC-HOXA, Dacarbazine Hydrogen-Oxalate Salt]",
    "IDR (intrinsic dissolution rate) pH 6.8": "5.58 ± 0.08 mg cm^–2 min^–1"
  },
  {
    "COMPOUND": "CN(C)N=Nc1[nH]cnc1C(N)=O.O=C(O)C=CC(=O)O [DTIC-HMAL, Dacarbazine Hydrogen-Maleate Salt]",
    "IDR (intrinsic dissolution rate) pH 6.8": "1.90 ± 0.06 mg cm^–2 min^–1"
  },
  {
    "COMPOUND": "CN(C)N=Nc1nc[nH]c1C(N)=O.CN(C)N=Nc1nc[nH]c1C(N)=O.O.O.O.O.O=C(O)CC(O)(CC(=O)O)C(=O)O",
    "IDR (intrinsic dissolution rate) pH 6.8": "0.35 ± 0.01 mg cm^–2 min^–1"
  }
]

###

TEST NAME: physchem
CONDITION SUMMARY: HCl solution, 37 °C, pH 1.2, simulated gastric fluid, thermodynamic from solid
MEASUREMENT NAME: solubility at 24 h

[
  {
    "COMPOUND": "CN(C)/N=N/c1[nH]cnc1C(N)=O [DTIC, Dacarbazine, reference compound]",
    "MEASUREMENT NAME": "solubility at 24 h",
    "TEST VALUE": "20.4 mg/mL"
  }
]

###

TEST NAME: Photostability in aqueous media (DTIC degradation / 2-AZA formation kinetics)
Assay type: physicochemical
CONDITION SUMMARY: 5 mM solution, phosphate buffer pH 6.8, UV irradiation 5 h
Measured kg, photogeneration rate constant for 2-AZA values are reported for all entries that follow.
MEASUREMENT NAME: kg, photogeneration rate constant for 2-AZA (mM h^–1)

[
  {
    "COMPOUND": "CN(C)/N=N/c1[nH]cnc1C(N)=O [DTIC, Dacarbazine, reference compound]",
    "TEST VALUE": 0.361
  },
  {
    "COMPOUND": "CN(C)N=Nc1[nH]cnc1C(N)=O.O=C(O)C(=O)O [DTIC-HOXA, Dacarbazine Hydrogen-Oxalate Salt]",
    "TEST VALUE": 0.386
  },
  {
    "COMPOUND": "CN(C)N=Nc1nc[nH]c1C(N)=O.O=C(O)/C=C/C(=O)O [DTIC-H2FUM, Dacarbazine-Fumaric Acid Cocrystal]",
    "TEST VALUE": 0.363
  },
  {
    "COMPOUND": "CN(C)N=Nc1nc[nH]c1C(N)=O.CN(C)N=Nc1nc[nH]c1C(N)=O.O.O.O.O.O=C(O)CC(O)(CC(=O)O)C(=O)O [DTIC-HCIT]",
    "TEST VALUE": 0.338
  },
  {
    "COMPOUND": "CN(C)N=Nc1[nH]cnc1C(N)=O.O=C(O)C=CC(=O)O [DTIC-HMAL, Dacarbazine Hydrogen-Maleate Salt]",
    "TEST VALUE": 0.371
  }
]

###

TEST NAME: Solid-state photodegradation test (black UV lamp chamber)
CONDITION SUMMARY: after 15 days in photostability chamber
MEASUREMENT NAME: stability, % 2-AZA found

[
  {
    "COMPOUND": "CN(C)N=Nc1nc[nH]c1C(N)=O.CN(C)N=Nc1nc[nH]c1C(N)=O.O.O.O.O.O=C(O)CC(O)(CC(=O)O)C(=O)O [DTIC-HCIT]",
    "MEASUREMENT NAME": "stability, % 2-AZA found",
    "TEST VALUE": "1.8 ± 0.2%"
  },
  {
    "COMPOUND": "CN(C)N=Nc1[nH]cnc1C(N)=O.O=C(O)C(=O)O [DTIC-HOXA, Dacarbazine Hydrogen-Oxalate Salt]",
    "MEASUREMENT NAME": "stability, % 2-AZA found",
    "TEST VALUE": "2.2 ± 0.4%"
  },
  {
    "COMPOUND": "CN(C)N=Nc1[nH]cnc1C(N)=O.O=C(O)C=CC(=O)O [DTIC-HMAL, Dacarbazine Hydrogen-Maleate Salt]",
    "MEASUREMENT NAME": "stability, % 2-AZA found",
    "TEST VALUE": "1.7 ± 0.2%"
  },
  {
    "COMPOUND": "CN(C)N=Nc1nc[nH]c1C(N)=O.O=C(O)/C=C/C(=O)O [DTIC-H2FUM, Dacarbazine-Fumaric Acid Cocrystal]",
    "MEASUREMENT NAME": "stability, % 2-AZA found",
    "TEST VALUE": "1.1 ± 0.1%"
  }
]

###

TEST NAME: Solid-state stability under accelerated degradation conditions (40 °C, 75% RH)
CONDITION SUMMARY: freshly prepared (initial) solid sample
MEASUREMENT NAME: stability, % DTIC found (%)

[
  {
    "COMPOUND": "CN(C)N=Nc1[nH]cnc1C(N)=O.O=C(O)C=CC(=O)O [DTIC-HMAL, Dacarbazine Hydrogen-Maleate Salt]",
    "TEST VALUE": 99.6
  },
  {
    "COMPOUND": "CN(C)N=Nc1nc[nH]c1C(N)=O.O=C(O)/C=C/C(=O)O [DTIC-H2FUM, Dacarbazine-Fumaric Acid Cocrystal]",
    "TEST VALUE": 99.5
  },
  {
    "COMPOUND": "CN(C)N=Nc1nc[nH]c1C(N)=O.CN(C)N=Nc1nc[nH]c1C(N)=O.O.O.O.O.O=C(O)CC(O)(CC(=O)O)C(=O)O [DTIC-HCIT]",
    "TEST VALUE": 99.8
  },
  {
    "COMPOUND": "CN(C)/N=N/c1[nH]cnc1C(N)=O [DTIC, Dacarbazine, reference compound]",
    "TEST VALUE": 100.0
  },
  {
    "COMPOUND": "CN(C)N=Nc1[nH]cnc1C(N)=O.O=C(O)C(=O)O [DTIC-HOXA, Dacarbazine Hydrogen-Oxalate Salt]",
    "TEST VALUE": 100.1
  }
]
